The values you see were collected from PubChem BioAssay (NCI).

system: DU-145 prostate; test: NCI tumour cell line growth inhibition, 48 h
Please provide measured TGI for the entries that follow.

> print(dat)
                                   molecule      studysystem  experimentalvalue
1  C/C=C\C(CC(=O)NCCC1CN(S(=O)(=O)c2ccc(C)cc2)c2ccccc21)CC(=O)OC (stereo not given)  DU-145 prostate           > 100 µM
2  COC(=O)c1sc(=S)sc1SCc1ccc(CSc2sc(=S)sc2C(=O)OC)cc1  DU-145 prostate           > 100 µM
3                    CC1=CC(=O)c2ccccc2C1=O  DU-145 prostate            29.4 µM
4  CN1CCN(c2ncc3c(n2)sc2c(=O)n(-c4ccccc4)cnc23)CC1  DU-145 prostate           > 100 µM

Entry CC12CC3OC(=O)C1COC14OC5(C2C1=O)C(O)(CCC1C4CC(O)C2(O)CC=CC(=O)C12C)C(=O)OC35C (stereo not given) : reported TGI = ?
> 100 µM

###

system: MCF7 breast; test: NCI tumour cell line growth inhibition, 48 h
outcomeMeasure: TGI

compound	experimentalValue
Nc1cccc(/C=C/C(=O)N2CCN(CCOC(c3ccccc3)c3ccccc3)CC2)c1	31.5 µM
CCC(C)[C@H]1O[C@]2(C=C[C@@H]1C)C[C@@H]1C[C@@H](C/C=C(\C)[C@@H](OC3C[C@H](OC)C(O[C@H]4C[C@H](OC)[C@@H](O)[C@H](C)O4)[C@H](C)O3)[C@@H](C)/C=C/C=C3\CO[C@@H]4[C@H](O)C(C)=C[C@@H](C(=O)O1)[C@]34O)O2 (some centres not stated)	5.72 µM
CCOC(=O)c1cn2c(n1)sc1c(Cl)c(Cl)ccc12	> 100 µM
CC1=NN(c2cccc(Cl)c2)C2(SCC(=O)N2c2nc3ccccc3s2)/C1=C\c1cccs1 (configuration not stated)	> 100 µM
Nc1ccc2c(SCc3ccc([N+](=O)[O-])cc3)c3ccccc3nc2c1	27.6 µM

Required: TGI, one value per compound below.
1. O=[N+]([O-])c1ccc2c(c1)Cc1cc(N=Cc3ccc4c(c3)OCO4)ccc1-2
2. COC(=O)c1ccccc1OCc1cc(=O)oc2ccc(C)cc12
3. O=C(NCCNCCCNC(=O)c1cc(-c2ccccc2)nc2ccccc12)c1cccc(O)c1O
4. COc1ccc(CNC(=O)NCn2cc(-c3ccccc3)nn2)cc1
5. O=C1NC(=S)N/C1=C\c1ccc(Br)s1
6. CCOC(=O)c1cc2c(n1Cc1cccc(OC)c1)-c1oncc1CCC2
7. NC(=O)c1cc2ccc(O)cc2oc1=Nc1ccccc1
8. CC[C@@H]1CC[C@@H]2[C@H](CC[C@]3(C)[C@@H](OS(=O)(=O)c4ccc(C)cc4)CC[C@@H]23)[C@H]1COS(=O)(=O)c1ccc(C)cc1

> 100 µM
> 100 µM
15.9 µM
> 100 µM
> 100 µM
> 100 µM
> 100 µM
> 100 µM

Required: TGI, one value per compound below.
1. COc1cc(-c2cc(-c3ccccc3)nc(-c3c(OC)ccc4c(C)cc(=O)oc34)c2)cc(OC)c1OC
2. CC(=O)O[C@H]1C(=O)[C@@]2(C)[C@H]([C@H](OC(=O)c3ccccc3)[C@]3(O)C[C@H](OC(=O)[C@H](O)[C@@H](NC(=O)c4cccc(N=[N+]=[N-])c4)c4ccccc4)C(C)=C1C3(C)C)[C@]1(OC(C)=O)CO[C@@H]1C[C@@H]2O
3. Cc1cc2c(cc1Cl)S(=O)(=O)OC(c1ccc([N+](=O)[O-])cc1)=N2
4. O=C(c1cccs1)N(C(=S)OC12CC3CC(CC(C3)C1)C2)c1ccccc1

> 100 µM
> 25 µM
> 100 µM
> 100 µM
